# Test system: 299254-011-R-J1-PDC complex spheroids viability
# experiment: Anticancer human tumor 299254-011-R-J1-PDC patient-derived melanoma cell line growth inhibition [GQUAD]
# condition description: second compound 10 µM; first compound 1 µM; stronger effect = lower value
Record form. Attribute: viability, T/C. Fill in for each entry.
Give bare numbers, in %.

Solved entries:
O=c1[nH]cc(F)c(=O)[nH]1 + Cc1[nH]c2ccc(F)cc2c1-c1nc2c3cccnc3c3ncccc3c2[nH]1 : 102
Cc1cccc(N(C)C(=O)C2C(O)CCN2c2nc(C)cc(C(F)(F)F)c2C#N)c1 (stereo not given) + CN(C)c1ccc(Nc2c3ccc(NC(=O)CCN4CCCC4)cc3nc3cc(NC(=O)CCN4CCCC4)ccc23)cc1 : 110
COc1ccc([C@@H](O)c2cc(-c3ncnc4cc(N5CCOCC5)ccc34)c(F)cc2Cl)nn1 + Cc1[nH]c2ccc(F)cc2c1-c1nc2c3cccnc3c3ncccc3c2[nH]1 : 93.9

Hi! Can you tell me viability, T/C for each of these molecules?
1. C=CC(=O)N1CCN(c2nc(=O)n(-c3c(C)ccnc3C(C)C)c3nc(-c4c(O)cccc4F)c(F)cc23)C(C)C1 (stereo not given) + Cc1[nH]c2ccc(F)cc2c1-c1nc2c3cccnc3c3ncccc3c2[nH]1
2. O=c1[nH]cc(F)c(=O)[nH]1 + CN(C)c1ccc(Nc2c3ccc(NC(=O)CCN4CCCC4)cc3nc3cc(NC(=O)CCN4CCCC4)ccc23)cc1

Reply:
[67.1, 94.7]

Hi! Can you tell me viability, T/C for each of these molecules?
1. CC(=O)O[C@H]1C(=O)[C@@]2(C)[C@H]([C@H](OC(=O)c3ccccc3)[C@]3(O)C[C@H](OC(=O)[C@H](O)[C@@H](NC(=O)c4ccccc4)c4ccccc4)C(C)=C1C3(C)C)[C@]1(OC(C)=O)CO[C@@H]1C[C@@H]2O + Cc1[nH]c2ccc(F)cc2c1-c1nc2c3cccnc3c3ncccc3c2[nH]1
2. O=C(NO)c1cnc(N2CCN(S(=O)(=O)c3ccc4ccccc4c3)CC2)nc1 + CN(C)c1ccc(Nc2c3ccc(NC(=O)CCN4CCCC4)cc3nc3cc(NC(=O)CCN4CCCC4)ccc23)cc1
3. C=CCn1c(=O)c2cnc(Nc3ccc(N4CCN(C)CC4)cc3)nc2n1-c1cccc(C(C)(C)O)n1 + CN(C)c1ccc(Nc2c3ccc(NC(=O)CCN4CCCC4)cc3nc3cc(NC(=O)CCN4CCCC4)ccc23)cc1
4. COc1ncnc(C2CC2)c1-c1ncc2cnn(Cc3ccc(-c4nc(C(F)(F)F)cn4C(C)C)cc3)c2n1 + Cc1[nH]c2ccc(F)cc2c1-c1nc2c3cccnc3c3ncccc3c2[nH]1
5. C=CC(=O)N1CCN(c2nc(=O)n(-c3c(C)ccnc3C(C)C)c3nc(-c4c(O)cccc4F)c(F)cc23)C(C)C1 (stereo not given) + Cc1cnc(CNC(=O)c2c(=O)c3ccc(N4CCCN(C)CC4)nc3n3c2sc2ccccc23)cn1

Reply:
[40.3, 3.61, 67.8, 114, 0.41]

---

# System: 299254-011-R-J1-PDC complex spheroids viability
# experiment: Anticancer human tumor 299254-011-R-J1-PDC cell line growth inhibition [GQUAD]; active = viability on the fitted dose curve at most 10% of control; inactive = the rest;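 further: spheroids exposed to the agents for seven days before readout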
# condition description: second compound 0.1 µM; first compound 1 µM
Give one outcome, nothing more. List: active, inactive

Answered cases to consult:
CC(C)(O)C1CCC(Nc2ccc3ncc(-c4cccc(C(F)(F)F)c4)n3n2)CC1 (stereo not given) + CN(C)c1ccc(Nc2c3ccc(NC(=O)CCN4CCCC4)cc3nc3cc(NC(=O)CCN4CCCC4)ccc23)cc1 : inactive
O=C(c1cc(Cc2n[nH]c(=O)c3ccccc23)ccc1F)N1CCN(C(=O)C2CC2)CC1 + Cc1cnc(CNC(=O)c2c(=O)c3ccc(N4CCCN(C)CC4)nc3n3c2sc2ccccc23)cn1 : inactive
COc1cc(C2c3cc4c(cc3C(OC3OC5COC(C)OC5C(O)C3O)C3COC(=O)C23)OCO4)cc(OC)c1O (stereo not given) + CN(C)c1ccc(Nc2c3ccc(NC(=O)CCN4CCCC4)cc3nc3cc(NC(=O)CCN4CCCC4)ccc23)cc1 : inactive
CC1COCCN1c1cc(C2(O)CC3CCC(C2)O3)c2cnn(-c3ccn[nH]3)c2n1 (stereo not given) + Cc1cnc(CNC(=O)c2c(=O)c3ccc(N4CCCN(C)CC4)nc3n3c2sc2ccccc23)cn1 : active

Pending compound:
Ask: Check the results log: what was the call for CC1COCCN1c1cc(C2(O)CC3CCC(C2)O3)c2cnn(-c3ccn[nH]3)c2n1 (stereo not given) + CN(C)c1ccc(Nc2c3ccc(NC(=O)CCN4CCCC4)cc3nc3cc(NC(=O)CCN4CCCC4)ccc23)cc1 ?
Reply: inactive

---

# System: 299254-011-R-J1-PDC complex spheroids viability
# experiment: Anticancer human tumor 299254-011-R-J1-PDC cell line growth inhibition [GQUAD];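 further: spheroids exposed to the agents for seven days before readout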
# condition description: curve of first compound; second compound 0.1 µM
Record form. Attribute: IC50. Fill in for each entry.

COc1cccc2c1C(=O)c1c(O)c3c(c(O)c1C2=O)CC(O)(C(=O)CO)CC3OC1CC(N)C(O)C(C)O1 (stereo not drawn) + Cc1[nH]c2ccc(F)cc2c1-c1nc2c3cccnc3c3ncccc3c2[nH]1 : 4.19 µM
CC(C)n1c(=O)n(C)c2cnc3cc(F)c(-c4ccc(OCCCN5CCCCC5)nc4)cc3c21 + Cc1[nH]c2ccc(F)cc2c1-c1nc2c3cccnc3c3ncccc3c2[nH]1 : > 10 µM

Next item in the queue.
Ask: Consider the molecule C=CC(=O)N1CCN(c2nc(=O)n(-c3c(C)ccnc3C(C)C)c3nc(-c4c(O)cccc4F)c(F)cc23)C(C)C1 (stereo not drawn) + CN(C)c1ccc(Nc2c3ccc(NC(=O)CCN4CCCC4)cc3nc3cc(NC(=O)CCN4CCCC4)ccc23)cc1 and give its measured IC50.
Reply: > 10 µM

---

# Test system: 299254-011-R-J1-PDC complex spheroids viability
# experiment: Anticancer human tumor 299254-011-R-J1-PDC cell line growth inhibition [GQUAD];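 further: spheroids exposed to the agents for seven days before readout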;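 on viability, T/C: percent viability relative to DMSO vehicle control wells = 100%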
# condition description: second compound 0.316 µM; first compound 0.0316 µM; stronger effect = lower value
Quick rule for you: viability, T/C under 90% gets label 1, anything else gets label 0.

Answered cases to consult:
Cn1ncnc1[C@H]1c2n[nH]c(=O)c3cc(F)cc(c23)N[C@@H]1c1ccc(F)cc1 + Cc1[nH]c2ccc(F)cc2c1-c1nc2c3cccnc3c3ncccc3c2[nH]1 : label 0
COc1ncnc(C2CC2)c1-c1ncc2cnn(Cc3ccc(-c4nc(C(F)(F)F)cn4C(C)C)cc3)c2n1 + Cc1cnc(CNC(=O)c2c(=O)c3ccc(N4CCCN(C)CC4)nc3n3c2sc2ccccc23)cn1 : label 1
C=CCn1c(=O)c2cnc(Nc3ccc(N4CCN(C)CC4)cc3)nc2n1-c1cccc(C(C)(C)O)n1 + Cc1[nH]c2ccc(F)cc2c1-c1nc2c3cccnc3c3ncccc3c2[nH]1 : label 0
CC(C)n1c(=O)n(C)c2cnc3cc(F)c(-c4ccc(OCCCN5CCCCC5)nc4)cc3c21 + CN(C)c1ccc(Nc2c3ccc(NC(=O)CCN4CCCC4)cc3nc3cc(NC(=O)CCN4CCCC4)ccc23)cc1 : label 1

Ask: # strict comparison: is reported viability, T/C < 90%? input = CC1COCCN1c1cc(C2(O)CC3CCC(C2)O3)c2cnn(-c3ccn[nH]3)c2n1 (stereo not given) + Cc1cnc(CNC(=O)c2c(=O)c3ccc(N4CCCN(C)CC4)nc3n3c2sc2ccccc23)cn1
Reply: label 1

---

Record form. Attribute: viability, T/C. Fill in for each entry.
# Tested on: 299254-011-R-J1-PDC complex spheroids viability
# experiment: Anticancer human tumor 299254-011-R-J1-PDC cell line growth inhibition [GQUAD];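 further: spheroids exposed to the agents for seven days before readout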;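 on viability, T/C: percent viability relative to DMSO vehicle control wells = 100%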
# condition description: second compound 1 µM; first compound 0.00999 µM; stronger effect = lower value
# Source text: DNA G-quadruplex Stabilizer Agents in Combinations in Complex Spheroids A high-throughput screen of multi-cell type tumor spheroids was designed to identify active combinations of DNA G-quadruplex stabilizer agents and targeted small molecules. […] Compounds. […] If the clinical Cmax for an agent had not been determined, the highest concentration tested was 10 microM. […]

Cn1ncnc1[C@H]1c2n[nH]c(=O)c3cc(F)cc(c23)N[C@@H]1c1ccc(F)cc1 + CN(C)c1ccc(Nc2c3ccc(NC(=O)CCN4CCCC4)cc3nc3cc(NC(=O)CCN4CCCC4)ccc23)cc1 : 98.4%

Hi! Can you tell me viability, T/C for each of these compounds?
1. Cc1[nH]c2ccccc2c1CCNCc1ccc(/C=C/C(=O)NO)cc1 + Cc1cnc(CNC(=O)c2c(=O)c3ccc(N4CCCN(C)CC4)nc3n3c2sc2ccccc23)cn1
2. CC[C@@]1(O)C(=O)OCc2c1cc1n(c2=O)Cc2cc3c(CN(C)C)c(O)ccc3nc2-1 + Cc1cnc(CNC(=O)c2c(=O)c3ccc(N4CCCN(C)CC4)nc3n3c2sc2ccccc23)cn1
3. Cc1[nH]c2ccccc2c1CCNCc1ccc(/C=C/C(=O)NO)cc1 + Cc1[nH]c2ccc(F)cc2c1-c1nc2c3cccnc3c3ncccc3c2[nH]1

Reply:
["79.7%", "89.5%", "93.7%"]

Hi! Can you tell me viability, T/C for each of these compounds?
1. CCc1c2c(nc3ccc(O)cc13)-c1cc3c(c(=O)n1C2)COC(=O)[C@]3(O)CC + Cc1[nH]c2ccc(F)cc2c1-c1nc2c3cccnc3c3ncccc3c2[nH]1
2. CC[C@@]1(O)C(=O)OCc2c1cc1n(c2=O)Cc2cc3c(CN(C)C)c(O)ccc3nc2-1 + Cc1[nH]c2ccc(F)cc2c1-c1nc2c3cccnc3c3ncccc3c2[nH]1
3. Cc1[nH]c2ccccc2c1CCNCc1ccc(/C=C/C(=O)NO)cc1 + CN(C)c1ccc(Nc2c3ccc(NC(=O)CCN4CCCC4)cc3nc3cc(NC(=O)CCN4CCCC4)ccc23)cc1
4. Cn1ncnc1[C@H]1c2n[nH]c(=O)c3cc(F)cc(c23)N[C@@H]1c1ccc(F)cc1 + Cc1cnc(CNC(=O)c2c(=O)c3ccc(N4CCCN(C)CC4)nc3n3c2sc2ccccc23)cn1
5. CCc1c2c(nc3ccc(O)cc13)-c1cc3c(c(=O)n1C2)COC(=O)[C@]3(O)CC + Cc1cnc(CNC(=O)c2c(=O)c3ccc(N4CCCN(C)CC4)nc3n3c2sc2ccccc23)cn1
6. Cn1ncnc1[C@H]1c2n[nH]c(=O)c3cc(F)cc(c23)N[C@@H]1c1ccc(F)cc1 + Cc1[nH]c2ccc(F)cc2c1-c1nc2c3cccnc3c3ncccc3c2[nH]1
7. CC[C@@]1(O)C(=O)OCc2c1cc1n(c2=O)Cc2cc3c(CN(C)C)c(O)ccc3nc2-1 + CN(C)c1ccc(Nc2c3ccc(NC(=O)CCN4CCCC4)cc3nc3cc(NC(=O)CCN4CCCC4)ccc23)cc1

Reply:
1. 94.2%
2. 98.2%
3. 73.4%
4. 84.2%
5. 77.5%
6. 87.1%
7. 115%

Ask: Consider the compound CCc1c2c(nc3ccc(O)cc13)-c1cc3c(c(=O)n1C2)COC(=O)[C@]3(O)CC + CN(C)c1ccc(Nc2c3ccc(NC(=O)CCN4CCCC4)cc3nc3cc(NC(=O)CCN4CCCC4)ccc23)cc1 and give its measured viability, T/C.
Reply: 91.6%

Reference for the values: PubChem BioAssay AID2060513
